# experiment description: Adsorption and release of various antibiotics on ultra-stable zeolite Y (USY)
# Type: physicochemical
# test context: USY suspended to 20 mg/ml
Use class 1 when the recorded Amount antibiotic in 20 mg zeolite/ml is no lower than 2 mg/mL; use class 0 when it is lower.

Textbook exercise: given the entry `CN(C)[C@@H]1C(=O)C(C(N)=O)=C(O)[C@@]2(O)C(=O)C3=C(O)c4c(O)cccc4[C@@](C)(O)[C@H]3C[C@@H]12` , state whether its Amount antibiotic in 20 mg zeolite/ml is greater than or equal to 2 mg/mL. class 0

Proceed to `O=C(N[C@H](CO)[C@H](O)c1ccc([N+](=O)[O-])cc1)C(Cl)Cl` class 1

Subsequent entry: `CC1(C)S[C@@H]2[C@H](NC(=O)[C@H](N)c3ccccc3)C(=O)N2[C@H]1C(=O)O` class 1

// repeat for `[H]/N=C(/N)N[C@H]1[C@H](O)[C@@H](O)[C@H](O[C@@H]2O[C@@H](C)[C@](O)(C=O)[C@H]2O[C@@H]2O[C@@H](CO)[C@H](O)[C@@H](O)[C@@H]2NC)[C@@H](N/C(N)=N\[H])[C@@H]1O` and report class 1

How about this molecule: `CC(=O)OCC1=C(C(=O)O)N2C(=O)[C@@H](NC(=O)Cc3cccs3)[C@H]2SC1` class 1

The reported numbers originate from patent US20030087753A1.
